System: MIWI (PIWIL1) piRISC loaded with piRNA #1 (30 nt);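 further: 1 nM active piRISC with 0.1 nM target library at 33 °C single turnover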
assay_comment: pre-steady-state target cleavage rate (min^-1); MIWI and MILI are mouse PIWI proteins and EfPiwi is from a freshwater sponge; tags in brackets are library labels; higher = faster piRNA-guided slicing of the target;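 further: 1 nM active piRISC with 0.1 nM target library at 33 °C single turnover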
assay_conditions: guide: piRNA #1 5'p-UGAGGUAGUAGGUUGUAUAGUAUCCAGAGG; auxiliary factor: 500 nM mouse GTSF1
In all, about 6,200 sequences were measured (“pre-steady-state target cleavage rate”: median about 0.29, highest 2% from about 2 on). The full list was thinned out, with the highest values kept by preference.
The following sequences are listed with their measured pre-steady-state target cleavage rate values.
In your answer, state the number alone without any accompanying words.

[[record]]
macromolecule_sequence = "GCUCUGGAUACUAUACAACCUACUACCUCG [g2:g29:cont:t1G]"
measured = 1.29

[[record]]
macromolecule_sequence = "GGACUGGAUACUAUCCAACCUACUACCUCA"
measured = 1.76

[[record]]
macromolecule_sequence = "CCUCUGGAUACUAUACAACCUACUACCUCCA"
measured = 2.27

[[record]]
macromolecule_sequence = "GGAGACCAUACUAUACAACCUACUACCUCU [g2:g23:cont:t1U]"
measured = 1.7

[[record]]
macromolecule_sequence = "GGAGUGGAUAUUAUACAACCUACUACCUCA"
measured = 1.48

[[record]]
macromolecule_sequence = "GGUCUGGAUACUUAUCAACCUACUACCUCA"
measured = 0.863


pre-steady-state target cleavage rate recorded for this sequence, GCUCUGGAUACUAUACAACCUACUACCUCCA , is 2.15

The value of pre-steady-state target cleavage rate measured for the sequence GCUCUGGAUACUAUCCAACCUACUACCUCA turned out to be 2.05

Reported pre-steady-state target cleavage rate ( GGUCUGGAUACUAUACAACCUACUACCUCCA ) = 2.06

For reference, reported pre-steady-state target cleavage rate for GCUCUGGAUACUAUACCAACCUACUACCUCA stands at 0.392

Entry GGUCUGGAUACUAUACUACCUACAACCUCA , pre-steady-state target cleavage rate reported as 0.456

Cited source: the supplement of paper PMC10338343
